Reported IC50 by item:
targetOfAssay: ^3 H-2-oxo-quazepam binding sites (BZ-1 receptors) in cerebellum (Rattus norvegicus, UniProt P18508+P62813)
Construct: Cerebral cortex and cerebellum were dissected on ice and homogenized; tissue Charles River Breeding Laboratories (rats)
protocolDetails: ^3 H-2-oxo-quazepam competition binding, cerebellum
# value in nM; strip the unit string

molecule: O=C1CN=C(c2ccccc2F)c2cc(Cl)ccc2N1CC(F)(F)F [2-oxo-quazepam]
measValue: 13.6

What value of measured IC50 is listed for Fc1ccccc1C1=NCC(=S)N(CC(F)(F)F)c2ccc(Cl)cc21 [quazepam, reference compound] ?
258

====

Reported pIC50 by item:
targetOfAssay: ^3 H-2-oxo-quazepam binding sites (BZ-1 receptors) in rat cortex (Rattus norvegicus, UniProt P18508+P62813)
Construct: Cerebral cortex and cerebellum were dissected on ice and homogenized; tissue Charles River Breeding Laboratories (rats)
protocolDetails: ^3 H-2-oxo-quazepam competition binding, rat cortex
Value format note: pIC50 is -log10 of concentration (mol/L); just state the number.

compound: Fc1ccccc1C1=NCC(=S)N(CC(F)(F)F)c2ccc(Cl)cc21 [quazepam, reference compound]
pIC50: 7.00

What value of measured pIC50 is listed for O=C1CN=C(c2ccccc2F)c2cc(Cl)ccc2N1CC(F)(F)F ?
7.77
